test system: Human immunodeficiency virus 1; assay: Antiviral activity against HIV1; format: functional, organism-based
Quick list: EC50 per entry.

>  <Molecule>
CCOC(=O)C12CC1(Cc1ccccc1)c1cc(Cl)ccc1NC2=O (stereo not drawn)

>  <EC50>
> 10 µM

$$$$
>  <Molecule>
CCOC(=O)C12CC1(C(C)C)c1cc(Cl)ccc1NC2=O (stereo not drawn)

>  <EC50>
> 10 µM

$$$$
>  <Molecule>
CCOC(=O)C12CC1(C1CCCCC1)c1cc(Cl)ccc1NC2=O (stereo not drawn)

>  <EC50>
> 10 µM

$$$$

The reported measurements were obtained from ChEMBL document CHEMBL1146842.
